Experiment Description: xn = mol fraction of the nth substance listed, in the solute-free solvent
Conditions Used: 313.15 K; x2 = 0.2307
Listing of entries alongside the reported solubility (g/100 g solution).

Compound | solubility (g/100 g solution)
CN1CCC(N(Cc2cccs2)c2ccccc2)CC1 + CCCO + O | 2.22
CN1CCC(N(Cc2cccs2)c2ccccc2)CC1 + CC(C)O + O | 1.78
Nc1cccc2ccncc12 + CCCO + O | 1.47
Nc1cccc2ccncc12 + CC(C)O + O | 1.18
Cc1ccc2cc(Br)ccc2n1 + CC(C)O + O | 1.15

###

Experiment Description: xn = mol fraction of the nth substance listed, in the solute-free solvent
Conditions Used: 318.15 K; x2 = 0.5454
Listing of entries alongside the reported solubility (g/100 g solution).

Molecule | solubility (g/100 g solution)
Nc1cccc2ccncc12 + CC(C)O + O | 2.3
CN1CCC(N(Cc2cccs2)c2ccccc2)CC1 + CCCO + O | 3.96
Cc1ccc2cc(Br)ccc2n1 + CC(C)O + O | 2.17
Nc1cccc2ccncc12 + CCCO + O | 2.78
CN1CCC(N(Cc2cccs2)c2ccccc2)CC1 + CC(C)O + O | 3.11

Data credit: the CheMixHub drug solubility set
